assayed target: human tau oligomers (human, UniProt P10636-6 2-383, limits assumed)
Sequence (P10636 other isoform, or with tags, fused parts or gaps limits assumed): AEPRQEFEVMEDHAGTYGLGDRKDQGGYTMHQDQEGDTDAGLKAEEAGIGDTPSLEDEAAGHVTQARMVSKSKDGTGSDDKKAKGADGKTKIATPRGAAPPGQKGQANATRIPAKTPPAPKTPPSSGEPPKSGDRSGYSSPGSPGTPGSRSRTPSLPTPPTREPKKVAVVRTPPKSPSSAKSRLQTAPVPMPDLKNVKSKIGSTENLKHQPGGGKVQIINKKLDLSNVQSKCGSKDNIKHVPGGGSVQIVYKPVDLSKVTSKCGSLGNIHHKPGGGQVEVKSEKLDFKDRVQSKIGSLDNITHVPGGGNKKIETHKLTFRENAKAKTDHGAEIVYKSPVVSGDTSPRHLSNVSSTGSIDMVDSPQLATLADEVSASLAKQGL
assay method text: cell-based or functional assay
Exercise: for every item that follows, state its recorded MTT viability of primary neurons with tau oligomers, antibody at 0.2 molar equivs.

Measured MTT viability of primary neurons with tau oligomers, antibody at 0.2 molar equivs of mouse 2D11 antibody (antibody, mouse IgG2a, V domains shown) VH: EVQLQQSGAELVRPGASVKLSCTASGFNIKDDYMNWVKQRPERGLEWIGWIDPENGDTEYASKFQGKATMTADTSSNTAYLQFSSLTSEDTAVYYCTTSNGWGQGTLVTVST VL: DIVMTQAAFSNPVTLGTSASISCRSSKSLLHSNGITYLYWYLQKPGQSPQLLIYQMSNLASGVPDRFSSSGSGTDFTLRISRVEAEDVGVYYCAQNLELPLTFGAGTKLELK : 52.8 % of control

// field: MTT viability of primary neurons with tau oligomers, antibody at 0.2 molar equivs; key: mouse 10C12 antibody (antibody, mouse IgG2a, V domains shown, also called m10C12) VH: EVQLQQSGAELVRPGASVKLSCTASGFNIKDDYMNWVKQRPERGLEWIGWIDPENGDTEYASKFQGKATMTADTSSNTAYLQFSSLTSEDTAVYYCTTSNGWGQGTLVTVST VL: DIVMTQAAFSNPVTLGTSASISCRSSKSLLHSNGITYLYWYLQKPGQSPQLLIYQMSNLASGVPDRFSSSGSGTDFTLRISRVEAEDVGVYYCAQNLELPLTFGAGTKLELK ; value = 47.1 % of control

# binder mouse 12C4 antibody (antibody, mouse IgG2a, V domains shown, also called m12C4) VH: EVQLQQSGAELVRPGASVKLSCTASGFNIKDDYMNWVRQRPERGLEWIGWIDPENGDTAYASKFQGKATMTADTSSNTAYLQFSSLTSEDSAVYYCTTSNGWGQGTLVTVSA VL: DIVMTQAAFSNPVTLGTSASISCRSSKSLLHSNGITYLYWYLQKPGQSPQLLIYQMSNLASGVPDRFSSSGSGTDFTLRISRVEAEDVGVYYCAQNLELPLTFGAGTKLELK ; its MTT viability of primary neurons with tau oligomers, antibody at 0.2 molar equivs = 48.6 % of control
